assay: Maximum plasma concentration (Cmax) of aticaprant, Example 1; type: in vivo; details: human, oral, 10 mg, Week 3 (n = 56), eITT, read-out: Cmax, Arithmetic Mean (SD)
recorded.metric: Cmax (ng/mL)
Quick note: give the figure in ng/mL, leave out the unit.

Query (compound): Cc1cc(C)cc(C2CCCN2Cc2ccc(Oc3ccc(C(N)=O)cc3F)cc2)c1 (stereo not shown) ; field requested: Cmax
33.5

----------
experiment: Maximum plasma concentration (Cmax) of aticaprant, Example 1; assay type: in vivo; settings: human, oral, 10 mg, Week 6 (n = 56), eITT, read-out: Cmax, Arithmetic Mean (SD)
recorded.metric: Cmax (ng/mL)
Quick note: give the figure in ng/mL, leave out the unit.

Query (compound): Cc1cc(C)cc(C2CCCN2Cc2ccc(Oc3ccc(C(N)=O)cc3F)cc2)c1 (stereo not shown) ; field requested: Cmax
34.3
